Sourced from ChEMBL document CHEMBL5038592

Target: ATP-sensitive inward rectifier potassium channel 1 (Rattus norvegicus, UniProt P35560)
Sequence (P35560 whole entry): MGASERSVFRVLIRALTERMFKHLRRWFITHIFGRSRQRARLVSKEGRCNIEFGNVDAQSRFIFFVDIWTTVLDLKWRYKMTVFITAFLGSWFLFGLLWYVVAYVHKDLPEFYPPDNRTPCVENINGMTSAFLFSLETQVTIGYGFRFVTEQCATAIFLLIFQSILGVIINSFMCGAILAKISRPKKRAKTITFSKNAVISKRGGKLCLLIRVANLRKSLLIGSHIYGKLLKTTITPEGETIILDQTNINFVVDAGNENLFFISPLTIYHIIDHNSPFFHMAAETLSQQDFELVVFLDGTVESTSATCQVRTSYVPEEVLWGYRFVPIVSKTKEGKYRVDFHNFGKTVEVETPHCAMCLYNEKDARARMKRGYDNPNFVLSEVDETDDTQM
Experiment: Inhibition of rat Kir1.1 expressed in HEK293 cells by electrophysiology assay
assay-endpoint: IC50 (nM)
Return type: number; implicit unit nM.

Query: Which value of IC50 has been reported for CC1=C(N2CCC3(CCN(C[C@H](O)c4ccc5c(c4C)COC5=O)CC3)C2=O)COC1=O in the records?
Response: 2.8

---

Assay: Clearance in Wistar Han rat at 2 mg/kg, po or 1 mg/kg, iv
Type: ADME, organism-based
Conditions: in vivo
assay-endpoint: clearance (mL/min/kg)
Return type: number; implicit unit mL/min/kg.

Query: Which value of clearance has been reported for CC1=C(N2CCC3(CCN(C[C@H](O)c4ccc5c(c4C)COC5=O)CC3)C2=O)COC1=O in the records?
Response: 29.4

---

Assay: Inhibition of Kir2.1 (unknown origin)
Design: species or system Homo sapiens
assay-endpoint: IC50

Query: Which value of IC50 has been reported for CC1=C(N2CCC3(CCN(C[C@H](O)c4ccc5c(c4C)COC5=O)CC3)C2=O)COC1=O in the records?
Response: > 100 µM

---

Below, each entry is listed with its recorded pIC50.
Target: Voltage-gated inwardly rectifying potassium channel KCNH2 (Homo sapiens)
Sequence (Q12809 whole entry): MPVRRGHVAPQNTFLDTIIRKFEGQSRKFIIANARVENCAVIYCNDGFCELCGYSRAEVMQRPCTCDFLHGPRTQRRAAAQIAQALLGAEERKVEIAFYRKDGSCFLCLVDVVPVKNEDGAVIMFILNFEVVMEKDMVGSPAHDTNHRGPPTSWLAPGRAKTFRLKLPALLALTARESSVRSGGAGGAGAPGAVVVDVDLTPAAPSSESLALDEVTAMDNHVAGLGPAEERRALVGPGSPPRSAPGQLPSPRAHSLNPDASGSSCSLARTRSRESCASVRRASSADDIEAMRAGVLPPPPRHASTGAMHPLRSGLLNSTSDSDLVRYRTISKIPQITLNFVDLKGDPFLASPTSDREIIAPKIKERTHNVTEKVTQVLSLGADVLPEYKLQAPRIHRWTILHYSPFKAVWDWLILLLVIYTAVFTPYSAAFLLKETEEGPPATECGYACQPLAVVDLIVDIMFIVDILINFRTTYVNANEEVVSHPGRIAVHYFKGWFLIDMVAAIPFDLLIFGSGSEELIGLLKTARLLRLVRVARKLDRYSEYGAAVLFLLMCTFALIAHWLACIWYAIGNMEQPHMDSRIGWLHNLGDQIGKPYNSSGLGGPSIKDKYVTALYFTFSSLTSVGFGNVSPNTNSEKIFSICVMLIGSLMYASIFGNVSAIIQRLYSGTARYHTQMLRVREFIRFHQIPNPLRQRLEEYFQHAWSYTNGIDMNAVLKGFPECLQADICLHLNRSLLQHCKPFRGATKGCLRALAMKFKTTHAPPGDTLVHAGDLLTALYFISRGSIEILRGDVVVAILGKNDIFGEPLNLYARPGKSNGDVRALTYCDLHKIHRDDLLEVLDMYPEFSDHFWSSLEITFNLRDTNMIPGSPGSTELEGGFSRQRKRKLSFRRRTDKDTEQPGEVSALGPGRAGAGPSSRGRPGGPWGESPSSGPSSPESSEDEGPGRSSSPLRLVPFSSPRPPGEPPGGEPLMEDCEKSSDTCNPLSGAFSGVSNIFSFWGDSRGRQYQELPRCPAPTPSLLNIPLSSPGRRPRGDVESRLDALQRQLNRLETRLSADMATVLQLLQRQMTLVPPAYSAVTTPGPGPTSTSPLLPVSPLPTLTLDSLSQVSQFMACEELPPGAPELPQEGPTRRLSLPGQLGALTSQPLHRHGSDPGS
# pIC50 = -log10(concentration in molar units)

Some solved entries appear below for comparison.
Query: API: value(readout= pIC50, system= Voltage-gated inwardly rectifying potassium channel KCNH2 (Homo sapiens), query= CC1=C(N2C(=O)C3(CCN(C[C@H](O)c4ccc5c(c4C)COC5=O)CC3)CC2C)COC1=O (stereo partly specified) )
Response: 4.74

Query: API: value(readout= pIC50, system= Voltage-gated inwardly rectifying potassium channel KCNH2 (Homo sapiens), query= Cc1c([C@@H](O)CN2CCC3(CC2)CCN(C2=CC(=O)OC2C)C3=O)ccc2c1COC2=O (stereo partly specified) )
Response: 4.72

Query: API: value(readout= pIC50, system= Voltage-gated inwardly rectifying potassium channel KCNH2 (Homo sapiens), query= CC1=C(N2CCC3(CCN(C[C@H](O)c4ccc5c(c4C)COC5=O)CC3)C2=O)C(C)OC1=O (stereo partly specified) )
Response: 4.70

Continuing:
Query: API: value(readout= pIC50, system= Voltage-gated inwardly rectifying potassium channel KCNH2 (Homo sapiens), query= Cc1c([C@@H](O)CN2CCC3(CC2)CCN(C2=CC(=O)OC2)C3)ccc2c1COC2=O )
Response: 4.05

Query: API: value(readout= pIC50, system= Voltage-gated inwardly rectifying potassium channel KCNH2 (Homo sapiens), query= Cc1c([C@@H](O)CN2CCC3(CC2)CC(=O)N(C2=CC(=O)OC2)C3)ccc2c1COC2=O )
Response: 4.05

Query: API: value(readout= pIC50, system= Voltage-gated inwardly rectifying potassium channel KCNH2 (Homo sapiens), query= Cc1c([C@@H](O)CN2CCN(C[C@H](O)c3ccc4c(c3C)COC4=O)CC2)ccc2c1COC2=O )
Response: 4.66

---

Assay: Apparent permeability in pig LLC-PK1 cells
assay-endpoint: Papp (×10⁻⁶ cm/s)
Return type: number; implicit unit ×10⁻⁶ cm/s.

Some solved entries appear below for comparison.
Query: Which value of Papp has been reported for Cc1c([C@@H](O)CN2CCN(C[C@H](O)c3ccc4c(c3C)COC4=O)CC2)ccc2c1COC2=O [MK-7145] in the records?
Response: 20

Query: Which value of Papp has been reported for Cc1c([C@@H](O)CN2CCC3(CC2)CC(=O)N(C2=CC(=O)OC2)C3)ccc2c1COC2=O in the records?
Response: 7.9

Query: Which value of Papp has been reported for CC1=C(N2C(=O)C3(CCN(C[C@H](O)c4ccc5c(c4C)COC5=O)CC3)CC2C)COC1=O (stereo partly specified) in the records?
Response: 18

Query: Which value of Papp has been reported for Cc1c([C@@H](O)CN2CCC3(CC2)CCN(C2=C(Cl)C(=O)OC2)C3=O)ccc2c1COC2=O in the records?
Response: 33

Continuing:
Query: Which value of Papp has been reported for Cc1c([C@@H](O)CN2CCC3(CC2)CCN(C2=CC(=O)OC2)C3)ccc2c1COC2=O in the records?
Response: 27

Query: Which value of Papp has been reported for CC1=C(N2CCC3(CCN(C[C@H](O)c4ccc5c(c4C)COC5=O)CC3)C2=O)C(C)OC1=O (stereo partly specified) in the records?
Response: 20

---

Test: AUC (0 to infinity) in Beagle dog at 2 mg/kg, po or 1 mg/kg, iv
Type: ADME, organism-based, Canis lupus familiaris
Parameters: dose 2 mg/kg
Settings: in vivo
assay-endpoint: AUC(0-inf)
Write your answer as a measured quantity: the number, then the unit.

Query: Which value of AUC(0-inf) has been reported for CC1=C(N2CCC3(CCN(C[C@H](O)c4ccc5c(c4C)COC5=O)CC3)C2=O)COC1=O in the records?
Response: 15.1 µM·h

---

Experiment: Clearance in Beagle dog at 2 mg/kg, po or 1 mg/kg, iv
Format: ADME, organism-based, Canis lupus familiaris
Conditions: in vivo
assay-endpoint: clearance (mL/min/kg)
Return type: number; implicit unit mL/min/kg.

Query: Which value of clearance has been reported for CC1=C(N2CCC3(CCN(C[C@H](O)c4ccc5c(c4C)COC5=O)CC3)C2=O)COC1=O in the records?
Response: 8.7

---

Experiment: Tmax in Wistar Han rat at 2 mg/kg, po or 1 mg/kg, iv
Type: ADME, organism-based
Details: in vivo
assay-endpoint: Tmax (min)
Return type: number; implicit unit min.

Query: Which value of Tmax has been reported for CC1=C(N2CCC3(CCN(C[C@H](O)c4ccc5c(c4C)COC5=O)CC3)C2=O)COC1=O in the records?
Response: 30

---

Experiment: Effective half life in Beagle dog at 2 mg/kg, po or 1 mg/kg, iv
Assay type: ADME, organism-based, Canis lupus familiaris
Conditions: in vivo, read-out: t1/2eff (converted)
assay-endpoint: half-life (h)
Return type: number; implicit unit h.

Query: Which value of half-life has been reported for CC1=C(N2CCC3(CCN(C[C@H](O)c4ccc5c(c4C)COC5=O)CC3)C2=O)COC1=O in the records?
Response: 6.8

---

Experiment: Volume of distribution at steady state in Wistar Han rat at 2 mg/kg, po or 1 mg/kg, iv
Assay type: ADME, organism-based
Conditions: in vivo, read-out: Vdss
assay-endpoint: Vd (L/kg)
Return type: number; implicit unit L/kg.

Query: Which value of Vd has been reported for CC1=C(N2CCC3(CCN(C[C@H](O)c4ccc5c(c4C)COC5=O)CC3)C2=O)COC1=O in the records?
Response: 14.7

---

Experiment: Terminal half life in rhesus monkey at 2 mg/kg, po or 1 mg/kg, iv
Type: ADME, organism-based, Macaca mulatta
Details: in vivo, read-out: beta t1/2 (converted)
assay-endpoint: half-life (h)
Return type: number; implicit unit h.

Query: Which value of half-life has been reported for CC1=C(N2CCC3(CCN(C[C@H](O)c4ccc5c(c4C)COC5=O)CC3)C2=O)COC1=O in the records?
Response: 3.3

---

Target: Cytochrome P450 2C9 (Homo sapiens, UniProt P11712)
Sequence (P11712 whole entry): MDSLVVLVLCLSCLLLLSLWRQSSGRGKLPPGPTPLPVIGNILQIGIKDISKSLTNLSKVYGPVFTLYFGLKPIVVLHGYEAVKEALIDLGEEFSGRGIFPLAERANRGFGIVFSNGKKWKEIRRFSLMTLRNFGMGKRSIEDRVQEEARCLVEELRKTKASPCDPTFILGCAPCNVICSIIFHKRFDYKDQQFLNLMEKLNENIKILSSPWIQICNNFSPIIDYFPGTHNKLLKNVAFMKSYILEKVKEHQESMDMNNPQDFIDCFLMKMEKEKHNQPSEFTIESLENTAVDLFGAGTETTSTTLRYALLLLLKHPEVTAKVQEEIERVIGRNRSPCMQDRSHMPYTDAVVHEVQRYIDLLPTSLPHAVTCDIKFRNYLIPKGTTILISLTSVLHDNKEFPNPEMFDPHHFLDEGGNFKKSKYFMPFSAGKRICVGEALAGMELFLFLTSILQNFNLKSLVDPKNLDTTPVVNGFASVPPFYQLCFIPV
assay-endpoint: IC50

Query: Which value of IC50 has been reported for CC1=C(N2CCC3(CCN(C[C@H](O)c4ccc5c(c4C)COC5=O)CC3)C2=O)COC1=O in the records?
Response: > 50 µM

---

Target: ATP-sensitive inward rectifier potassium channel 1 (Homo sapiens, UniProt P48048)
Sequence (P48048 whole entry): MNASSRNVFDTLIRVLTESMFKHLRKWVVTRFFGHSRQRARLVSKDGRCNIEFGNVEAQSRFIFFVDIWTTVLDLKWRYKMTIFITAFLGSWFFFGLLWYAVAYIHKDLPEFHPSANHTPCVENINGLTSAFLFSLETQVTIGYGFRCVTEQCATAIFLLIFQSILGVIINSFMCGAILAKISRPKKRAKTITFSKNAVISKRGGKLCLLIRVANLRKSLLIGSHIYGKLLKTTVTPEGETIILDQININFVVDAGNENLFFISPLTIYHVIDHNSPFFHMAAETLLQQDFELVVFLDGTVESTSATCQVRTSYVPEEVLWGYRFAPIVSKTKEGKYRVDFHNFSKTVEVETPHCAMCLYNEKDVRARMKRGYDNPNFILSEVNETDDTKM
Assay: Inhibition of human ROMK expressed in CHO cells by whole cell voltage clamp electrophysiology assay
assay-endpoint: IC50 (nM)
Return type: number; implicit unit nM.

Query: Which value of IC50 has been reported for Cc1c([C@@H](O)CN2CCC3(CC2)CCN(C2=CC(=O)CC2)C3=O)ccc2c1COC2=O in the records?
Response: 11

Query: Which value of IC50 has been reported for Cc1c([C@@H](O)CN2CCC3(CC2)CCN(C2=C(Cl)C(=O)OC2)C3=O)ccc2c1COC2=O in the records?
Response: 6

Query: Which value of IC50 has been reported for Cc1c([C@@H](O)CN2CCC3(CC2)CCN(C2=CC(=O)OC2C)C3=O)ccc2c1COC2=O (stereo not given in full) in the records?
Response: 24

Query: Which value of IC50 has been reported for CC1=C(N2CCC3(CCN(C[C@H](O)c4ccc5c(c4C)COC5=O)CC3)C2=O)C(C)OC1=O (stereo not given in full) in the records?
Response: 98

Query: Which value of IC50 has been reported for Cc1c([C@@H](O)CN2CCC3(CC2)CCN(C2=CC(=O)OC2)C3)ccc2c1COC2=O in the records?
Response: 26

Continuing:
Query: Which value of IC50 has been reported for CCC1=C(N2CCC3(CCN(C[C@H](O)c4ccc5c(c4C)COC5=O)CC3)C2=O)COC1=O in the records?
Response: 18

Query: Which value of IC50 has been reported for CC1=C(N2CCC3(CCN(C[C@H](O)c4ccc5c(c4C)COC5=O)CC3)C2=O)CCC1=O in the records?
Response: 15

Query: Which value of IC50 has been reported for CC1=C(N2C(=O)C3(CCN(C[C@H](O)c4ccc5c(c4C)COC5=O)CC3)CC2C)COC1=O (stereo not given in full) in the records?
Response: 18

Query: Which value of IC50 has been reported for Cc1c([C@@H](O)CN2CCC3(CC2)CC(=O)N(C2=CC(=O)OC2)C3)ccc2c1COC2=O in the records?
Response: 45

Query: Which value of IC50 has been reported for CC1=C(N2CCC3(CCN(C[C@H](O)c4ccc5c(c4C)COC5=O)CC3)C2=O)COC1=O in the records?
Response: 5
